Protocol Description: binders of probe aHhip on microarray, primary screen, stem cell growth factor project, biochemical, small-molecule microarray, fluorescence 635/667 (AID 1087);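 note: score merges spot fluorescence at 667nm with spot signal to noise ratio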
Measurement Setup: higher = more signal
Measured Quantity: composite z-score
# answer = number (no unit)

Take a look at these entries with their results.
- Cc1cc(C)c(C(O)C2C=CC3C(=O)N(c4ccccc4)C(=O)C3N2Nc2ccccc2)c(C)c1 (centres undefined): -0.189
- C[N+](C)(C)CCCC[C@@H]1NC(=O)[C@H]2C[C@@H](C(=O)NCCCCCCN)[C@@H](c3cccc(OCCO)c3)N2C1=O: 1.13
- COCCOC(=O)N1C(=O)[C@@]2(c3cc(C#Cc4ccc(OC)cc4)ccc31)[C@H](C(=O)N1CCc3cc(OC)c(OC)cc3C1)[C@H]1C(=O)O[C@H](c3ccccc3)[C@H](c3ccccc3)N1[C@@H]2c1ccc(O)cc1: -0.297
- COC(=O)[C@@]1(Cc2ccccc2)[C@H]2c3cc(C(=O)N4CCCC4)n(CCO)c3C[C@H]2CN1C(=O)c1ccccc1: 0.216
- [N-]=[N+]=NCc1ccccc1C[C@]1(C(=O)NCCN2CCOCC2)N=C(c2ccc(OCCCO)cc2)O[C@H]1c1ccccc1: -0.0296

Query: Fill in: composite z-score of CN(C)C(=O)[C@@]1(Cc2ccccc2N=[N+]=[N-])N=C(c2ccc(OCCCO)cc2)O[C@H]1c1ccccc1N=[N+]=[N-] is ___
Response: 0.28

Query: Could you tell me which composite z-score is on file for CCOC(=O)C1=CC[C@@H](c2cccc(Br)c2)N(S(=O)(=O)c2ccc(C)cc2)[C@H]1c1ccc([N+](=O)[O-])cc1 ?
Response: 0.305

Query: Dear colleague, I am looking for the recorded composite z-score of the following compound: CCCNC(=O)[C@@H]1c2ccccc2C(=O)N(CC23CC4CC(CC(C4)C2)C3)[C@H]1c1ccc(CO)cc1
Response: 0.0373

Query: Tell me the measured composite z-score of COc1ccc(C#Cc2ccc3c(c2)[C@]2(C(=O)N3)[C@H](C(=O)O)[C@H]3C(=O)O[C@H](c4ccccc4)[C@H](c4ccccc4)N3[C@@H]2c2ccc(OCCO)cc2)cc1 , please.
Response: 0.122

Query: # input compound: COCC1=C([C@H](O)CCc2ccccc2)[C@H](CO)[C@@H]2C(=O)N(C)C(=O)[C@@H]2C1 ; wanted: its composite z-score
Response: -0.226

Query: Report composite z-score for COc1ccc([Si](C)(C)[C@@H]2[C@@H](CC(=O)N3Cc4ccccc4C[C@H]3CO)O[C@]3(C(=O)N(Cc4cccc(N5CCCCC5=O)c4)c4ccccc43)[C@H]2C)cc1 please.
Response: -0.0994

Query: For O=C(N1CCOCC1)[C@@]1(CCS(=O)(=O)c2ccccc2)COC(c2ccc(OCCCO)cc2)=N1 , what is its reported composite z-score?
Response: 0.041

Query: Look at this compound and give its reported composite z-score. COCCCNC(=O)[C@]1(Cc2ccccc2CN=[N+]=[N-])N=C(c2ccc(OCCCO)cc2)O[C@@H]1c1ccccc1CN=[N+]=[N-]
Response: 0.537

Query: # get_value(readout='composite z-score', item= CC(C)C(CO)N1C(=O)[C@@H]2[C@H]3C(=O)OCC=C[C@H]3OC23C=CCN(CCN2CCOCC2)C(=O)[C@@H]13 (some centres undefined) )
Response: -0.538
